test system: EKVX NSCLC; assay: NCI tumour cell line growth inhibition, 48 h
Record form. Attribute: GI50. Fill in for each entry.

O=C(O)[C@@H]1CCCN1Cc1cc2cc3c(cc2c2cc(OCc4ccccc4)ccc12)OCO3 :: 21.8 µM
CO/N=C(\COc1ccc2c(=O)cc(-c3ccccc3)oc2c1)c1ccc(F)cc1 :: 74.4 µM
Cn1cc(-c2ccc(-c3cn(C)c4ncccc34)[nH]2)c2cccnc21 :: 1.62 µM
CC1=C2[C@H]3OC(=O)[C@@H](C)[C@@H]3CC[C@@]2(C)C=CC1=O :: > 100 µM
C=CCCCC(=O)CCC(=O)OCC1O[C@@H](O[C@@H]2C(O)[C@@H](OC(C)=O)C(C)O[C@H]2O[C@H](CC=C)CCCCC)C(O)[C@@H](OC(=O)/C(C)=C/C)[C@@H]1OC(=O)/C=C/c1ccccc1 (stereo partly specified) :: 0.428 µM

Input COc1ccc(C(=O)NCCNc2nccc(-c3c(-c4ccc(F)cc4)nc4sccn34)n2)cc1 . Output GI50: 5.03 µM

---

tested on: RPMI-8226 leukemia; experiment: NCI tumour cell line growth inhibition, 48 h
Record form. Attribute: TGI. Fill in for each entry.

// solved cases for TGI follow
O=[N+]([O-])c1ccc(/C(=C\c2ccccc2)Cn2ccnc2)cc1 :: > 100 µM
CSC1(C)CC2C(CC1N1CCOCC1)C2(C)C (stereo not drawn) :: > 100 µM

Continue with the compound presented below.
Input CCOC(=O)CC1c2ccc(O)cc2OC(=O)C1c1ccc(N)cc1 (stereo not drawn) . Output TGI: > 100 µM

---

test system: MDA-MB-231 breast; test: NCI tumour cell line growth inhibition, 48 h
measurement_kind: TGI

Nc1nc(Cl)c(/C=N\O)c(NCC2(CO)CC(=O)C2)n1 :: > 100 µM
Cc1ccncc1N1CCN(c2ccnc(Cl)c2)C1=O :: > 100 µM

Continue with the molecule presented below.
Field TGI (MDA-MB-231 breast), entry Cn1ncc(NCCn2cnc3c2c(=O)n(C)c(=O)n3C)c(Cl)c1=O : > 100 µM

---

test system: A498 renal; test: NCI tumour cell line growth inhibition, 48 h
measurement_kind: TGI

// solved cases for TGI follow
N#CC1Sc2ccccc2-n2cccc21 (stereo unspecified) :: > 100 µM
COc1ccc2c(c1)CC[C@@H]1C2CC[C@]2(C)C(=O)N(CCN3CCCC3)C(=O)CC12 (stereo partly specified) :: > 100 µM
C[n+]1cn(-c2ccc([N+](=O)[O-])cn2)c2ccccc21 :: > 100 µM
COC(=O)CCCc1ccc2c(c1)CC1(Cc3ccccc3C1)C2 :: > 100 µM
O=C1c2ccccc2C2(O)Nc3c(ccc4ccccc34)C12O (stereo unspecified) :: > 100 µM

Give one value of TGI per listed compound.
1. C=C[C@@]1(C)CC2(C=C(CO)C(O)O2)Oc2c1c(=O)oc1cccc(C)c21 (stereo partly specified)
2. CCOC(=O)CC1c2ccc(O)cc2OC(=O)C1c1ccc(N)cc1 (stereo unspecified)
3. CSC1C=C(C(C)C)CCC1(C)SC (stereo unspecified)
4. N#Cc1c(C#N)c(SSc2c(C#N)c(C#N)c(N)n2-c2ccc(F)cc2)n(-c2ccc(F)cc2)c1N
5. O=[N+]([O-])[O][Sn]([O][Sn]([O][N+](=O)[O-])([c]1ccccc1)[c]1ccccc1)([c]1ccccc1)[c]1ccccc1
6. C[N+](C)(C)CC1CCc2ccccc2C1=O (stereo unspecified)

1: 51.8 µM; 2: > 100 µM; 3: 40.4 µM; 4: 18.9 µM; 5: > 100 µM; 6: 50.4 µM

---

Record form. Attribute: TGI. Fill in for each entry.
test system: ACHN renal; assay: NCI tumour cell line growth inhibition, 48 h

COC(=O)c1ccccc1C1CN=NC12Cc1c(C)cccc1C2=O (stereo not given) :: > 100 µM
N#Cc1ccccc1C#C/C=C\C#Cc1cccs1 :: > 100 µM
C=C1CC(c2ccc(O)c(OC)c2)Oc2c(OC)cccc21 (stereo not given) :: > 100 µM
O=C(/C=C/c1ccc2c(c1)OCO2)NCc1ccco1 :: > 100 µM

Continue with the compound presented below.
Input Cc1ccc(NC(=O)CSc2nnc(Cc3ccccc3)o2)c(C)c1 . Output TGI: > 100 µM

---

Record form. Attribute: TGI. Fill in for each entry.
test system: EKVX NSCLC; assay: NCI tumour cell line growth inhibition, 48 h

// solved cases for TGI follow
COc1cc2c(c(OC)c1)C(C)=NC(C)C2 (stereo not drawn) :: > 100 µM
NCc1ccc(O)c(O)c1 :: > 100 µM

Continue with the compound presented below.
Input O=[N+]([O-])c1ccc(/C(=C\c2ccccc2)Cn2ccnc2)cc1 . Output TGI: > 100 µM

---

tested on: COLO 205 colon; experiment: NCI tumour cell line growth inhibition, 48 h
measurement_kind: TGI

COc1cc(C2c3cc4c(cc3[C@@H](NCCCN3CCCC3=O)C3COC(=O)[C@H]23)OCO4)cc(OC)c1O (some centres undefined) :: > 100 µM

Give one value of TGI per listed compound.
1. Cn1ncc(NCCn2cnc3c2c(=O)n(C)c(=O)n3C)c(Cl)c1=O
2. CO/C(N)=C(\C#N)N=Cc1ccccc1
3. COc1c(C)c(OC)c2c(c1O)[C@@H]1[C@@H]3Cc4c(OC)c(C)c(OC)c(O)c4[C@H](CNC(=O)c4ccc5ccccc5n4)N3[C@@H](C#N)[C@H](C2)N1C

> 100 µM
> 100 µM
> 0.1 µM

---

system: OVCAR-8 ovarian; assay: NCI tumour cell line growth inhibition, 48 h
measurement_kind: TGI

// solved cases for TGI follow
CCOC(=O)[C@@]12C(C)=CC(=O)O[C@]1(C)C[C@H]2C#N :: > 100 µM
COC(=O)c1c(C(=O)OC)c2ccc(-c3ccc(Cl)cc3)nn2c1C(=O)c1ccc([N+](=O)[O-])cc1 :: > 100 µM
CN(C)CCCNC(=S)S :: > 100 µM
O=C1C=CC2(C=C1)CCC(=O)O2 :: > 100 µM
CO/C=C(/C(=O)OC)c1ccccc1Oc1c(F)c(F)c(F)c(F)c1F :: > 100 µM
CC1(C)CSCC(C)(C)C(=N/N)/C1=N\N :: > 100 µM
CC(=O)OCCOCn1cc(C=O)c2ccccc21 :: > 100 µM
CC(C)(C)c1cc(C(C)(C)C)c2c(c1O)OC(=O)CS2 :: > 78 µM
CC(Cc1ccc(O)cc1)NCC(O)c1ccc(O)c(O)c1 (stereo not given) :: > 100 µM

Input C=CCCCC(=O)CCC(=O)OCC1O[C@@H](O[C@@H]2C(O)[C@@H](OC(C)=O)C(C)O[C@H]2O[C@H](CC=C)CCCCC)C(O)[C@@H](OC(=O)/C(C)=C/C)[C@@H]1OC(=O)/C=C/c1ccccc1 (stereo not given in full) . Output TGI: > 50 µM

---

tested on: BT-549 breast; experiment: NCI tumour cell line growth inhibition, 48 h
measurement_kind: TGI (µM)
One number for each entry, in µM.

// solved cases for TGI follow
N#C/C(=C\c1ccc(Cl)cc1)c1nc(-c2cc3ccccc3oc2=O)cs1 :: 31.8
C[C@]12CC[C@H](O)C[C@@H]1CC[C@@H]1[C@@H]2CC[C@]2(C)[C@@H](c3cc(C(F)(F)F)n[nH]3)CC[C@@H]12 :: 23

Continue with the compound presented below.
Input CC12CC[C@@H]3c4cc5c(cc4CC[C@H]3[C@@H]1CCC2O)oc1cc(F)ccc15 (stereo partly drawn) . Output TGI: 39.1

---

system: U251 CNS; test: NCI tumour cell line growth inhibition, 48 h
Record form. Attribute: TGI. Fill in for each entry.

// solved cases for TGI follow
CCOC(=O)C(=O)Nc1cccc(Cl)c1C :: > 100 µM
COc1ccc(OC)c(Nc2nc3ccccc3c3c2-c2ccc(OC)cc2C3=O)c1 :: > 100 µM

Give one value of TGI per listed compound.
1. CN(C)c1ccc(/C=C2\N=C(N/N=C/c3ccc(N(C)C)cc3)NC2=O)cc1
2. CO/C=C(/C(=O)OC)c1ccccc1Oc1c(F)c(F)c(F)c(F)c1F

1: > 100 µM; 2: > 100 µM

---

system: UACC-62 melanoma; experiment: NCI tumour cell line growth inhibition, 48 h
measurement_kind: GI50

// solved cases for GI50 follow
NC(=O)[C@@H](CCC(F)(F)F)N(Cc1ccc(-c2ncon2)cc1F)S(=O)(=O)c1ccc(Cl)cc1 :: 18.2 µM
Cc1ccc2nc3ccccc3c(NCc3ccccc3)c2c1 :: 5.9 µM
c1cc2ccc3cc2cc1CNCCN1CCNCc2ccc4ccc(cc4c2)CNCCN(CCNC3)CCNCc2ccc3ccc(cc3c2)CNCC1 :: 2.37 µM
CO/N=C(\COc1ccc2c(=O)cc(-c3ccccc3)oc2c1)c1ccc(F)cc1 :: 29.8 µM

Continue with the compound presented below.
Input CCC(=O)Oc1cc(/C=C/C(=O)O[C@H]2C[C@H]3CN4CCc5c([nH]c6cc(OC)ccc56)[C@@H]4C[C@@H]3[C@@H](C(=O)OC)[C@@H]2OC)ccc1OC . Output GI50: 12.1 µM
